# measuredOn: AKT2 (Homo sapiens, UniProt P31751)
# Sequence (P31751 whole entry): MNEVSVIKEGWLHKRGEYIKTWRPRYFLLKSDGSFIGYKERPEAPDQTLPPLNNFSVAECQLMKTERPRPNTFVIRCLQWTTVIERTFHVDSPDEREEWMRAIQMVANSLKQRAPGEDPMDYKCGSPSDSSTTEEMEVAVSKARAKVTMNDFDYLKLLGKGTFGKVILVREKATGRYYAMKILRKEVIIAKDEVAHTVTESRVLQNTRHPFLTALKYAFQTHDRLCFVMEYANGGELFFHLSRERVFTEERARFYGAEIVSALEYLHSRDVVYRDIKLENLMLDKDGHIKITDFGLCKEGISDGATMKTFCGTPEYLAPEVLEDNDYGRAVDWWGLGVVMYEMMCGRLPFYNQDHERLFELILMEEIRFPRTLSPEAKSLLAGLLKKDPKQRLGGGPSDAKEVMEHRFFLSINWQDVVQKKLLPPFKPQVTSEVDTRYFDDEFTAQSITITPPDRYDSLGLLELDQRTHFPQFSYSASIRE
# protocolSummary: Live cell target engagement by NanoBRET competitive probe displacement, AKT2
# experimentalParameters: transfected HEK293 cells, 2 h at 37° C., read-out: AKT2 IC50: GeoMean IC50
# IC50 per record follows

{"columns": ["compound", "measuredOn", "IC50"],
 "data": [
  ["Nc1ncccc1-c1nc2ccc(-n3cccn3)nc2n1-c1ccc2c(c1)CC[C@@H]2NC(=O)c1cc(C=O)c(O)c2nccn12", "AKT2 (Homo sapiens, UniProt P31751)", "≥ 2000 nM"],
  ["Nc1ncccc1-c1nc2ccc(-n3cc(CO)cn3)nc2n1-c1ccc2c(c1)CC[C@@H]2NC(=O)c1cc(C=O)c(O)cc1F", "AKT2 (Homo sapiens, UniProt P31751)", "100 to 2000 nM"],
  ["Nc1ncccc1-c1nc2ccc(-n3cccn3)nc2n1-c1ccc2c(c1)CC(F)[C@@H]2NC(=O)c1cc(C=O)c(O)cc1F (single isomer, unassigned) [Example 259]", "AKT2 (Homo sapiens, UniProt P31751)", "100 to 2000 nM"],
  ["Nc1ncccc1-c1nc2ccc(-c3ccccc3)nc2n1-c1ccc2c(c1)CC[C@@H]2NC(=O)c1cc(C=O)c2[nH]nnc2c1", "AKT2 (Homo sapiens, UniProt P31751)", "< 10 nM"],
  ["Nc1ncccc1-c1nc2ccc(-c3ccccc3)nc2n1-c1ccc2c(c1)CC[C@@H]2NC(=O)c1cc(Cl)c(O)c(C=O)c1", "AKT2 (Homo sapiens, UniProt P31751)", "100 to 2000 nM"],
  ["Cc1cc(O)c(C=O)cc1C(=O)N[C@H]1CCc2cc(-n3c(-c4cccnc4N)nc4ccc(-n5cccn5)nc43)ccc21", "AKT2 (Homo sapiens, UniProt P31751)", "100 to 2000 nM"],
  ["Nc1ncccc1-c1nc2ccc(-n3cccn3)nc2n1-c1ccc2c(c1)C(=O)C[C@@H]2NC(=O)c1ccc(O)c(C=O)c1", "AKT2 (Homo sapiens, UniProt P31751)", "100 to 2000 nM"],
  ["N#Cc1ccc2nc(-c3cccnc3N)n(-c3ccc4c(c3)CC[C@@H]4NC(=O)c3ccc(O)c(C=O)c3)c2n1", "AKT2 (Homo sapiens, UniProt P31751)", "≥ 2000 nM"],
  ["Nc1ncccc1-c1nc2ccc(-n3cccn3)nc2n1-c1ccc2c(c1)C1CC1C2NC(=O)c1ccc(O)c(C=O)c1 (stereo not drawn)", "AKT2 (Homo sapiens, UniProt P31751)", "≥ 2000 nM"],
  ["Nc1ncccc1-c1nc2ccc(-c3cnccn3)nc2n1-c1ccc2c(c1)CC[C@@H]2NC(=O)c1cc(F)c(O)c(C=O)c1", "AKT2 (Homo sapiens, UniProt P31751)", "100 to 2000 nM"],
  ["Nc1ncccc1-c1nc2ccc(-c3ccccc3)nc2n1-c1ccc2c(c1)CCC2C(=O)Nc1ccc(O)c(C=O)c1 (stereo not drawn)", "AKT2 (Homo sapiens, UniProt P31751)", "100 to 2000 nM"],
  ["Nc1ncccc1-c1nc2ccc(-n3cccn3)nc2n1-c1ccc2c(c1)CC[C@@H]2NC(=O)c1ccc(F)c(C=O)c1", "AKT2 (Homo sapiens, UniProt P31751)", "10 to 100 nM"]
]}
